- testedSystem: HFD300.1
- experimentDescription: 125I-ligand binding
reportedEndpoint: Kd (nM)
Give the number; nM is assumed, so skip it.

Per the record, NRG1β (ligand) SHLVKCAEKEKTFCVNGGECFMVKDLSNPSRYLCKCPNEFTGDRCQNYVMASFYKHLGIEFMEAE has Kd of 12.1

Ref: patent US20100278801A1
